Provide the reported log10 of EC50 of each item.
# assay target: human CYP11B2 (Homo sapiens)
# Sequence (P19099 25-503): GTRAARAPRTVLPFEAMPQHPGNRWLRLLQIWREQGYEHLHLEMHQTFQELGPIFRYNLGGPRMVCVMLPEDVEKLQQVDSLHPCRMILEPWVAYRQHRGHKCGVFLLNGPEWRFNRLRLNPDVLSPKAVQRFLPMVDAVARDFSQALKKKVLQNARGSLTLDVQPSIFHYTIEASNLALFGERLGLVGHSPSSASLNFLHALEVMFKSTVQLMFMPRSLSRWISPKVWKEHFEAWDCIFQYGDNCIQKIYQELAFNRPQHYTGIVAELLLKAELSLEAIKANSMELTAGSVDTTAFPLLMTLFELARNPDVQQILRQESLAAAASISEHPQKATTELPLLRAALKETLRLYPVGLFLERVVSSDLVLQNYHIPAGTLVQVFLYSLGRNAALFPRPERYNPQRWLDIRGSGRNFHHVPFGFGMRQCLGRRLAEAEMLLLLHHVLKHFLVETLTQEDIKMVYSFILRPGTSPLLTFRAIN
# experiment: G-402 cellular enzyme assay, human CYP11B2 (aldosterone release, HTRF)
# protocol conditions: G-402 cells, 1 μM Deoxycorticosterone
# Source text: Herein we identified the use of the G-402 cell line as a host cell to ectopically express (transiently or stably) enzymes of the CYP11 family. […] Importantly the identified cell line G-402 expresses co-factors (adrenodoxin and adrenodoxin reductase) important for the activity of the CYP11 family and no relevant enzyme activity of the CYP11 family (in comparison to H295R cells) was detected in these cells. […]
Reminder: these figures are log10 of reported EC50, in nM before transformation.

INPUT: Query: log10 of EC50; subject: `O=C1c2ccc(Cl)cc2CCN1c1cncc(C2CC2)c1`
OUTPUT: 0.84

INPUT: Query: log10 of EC50; subject: `O=C1c2ccc(Cl)cc2CCN1c1cncc(Cn2ccnn2)c1`
OUTPUT: 2.02

INPUT: Query: log10 of EC50; subject: `N#Cc1ccncc1N1CCc2cc(Cl)ccc2C1=O`
OUTPUT: 2.65

INPUT: Query: log10 of EC50; subject: `O=C1c2ccc(Cl)cc2C2(CC2)N1c1cncc(F)c1`
OUTPUT: 2.00

INPUT: Query: log10 of EC50; subject: `COc1cncc(N2CC(C)(C)c3cc(Cl)ccc3C2=O)c1`
OUTPUT: 2.75

INPUT: Query: log10 of EC50; subject: `COCc1c(F)cncc1N1CCc2cc(Cl)ccc2C1=O`
OUTPUT: 2.22

INPUT: Query: log10 of EC50; subject: `O=C(c1cncc(N2CCc3cc(Cl)ccc3C2=O)c1)N1CCCC1`
OUTPUT: 2.51

INPUT: Query: log10 of EC50; subject: `COc1ccc2c(n1)C(C)(C)N(c1cncc(-c3ccnn3C)c1)C2=O`
OUTPUT: 1.08

INPUT: Query: log10 of EC50; subject: `Cc1cn[nH]c1-c1cncc(N2CCc3cc(Cl)ccc3C2=O)c1`
OUTPUT: 1.44

INPUT: Query: log10 of EC50; subject: `CSc1cncc(N2CCc3cc(Cl)ccc3C2=O)c1`
OUTPUT: 0.91
